Cited source for all entries: patent US20260265244A1

Target: cGAMP binding domain of wild-type (GRR) human STING, residues 155-341 (Homo sapiens, UniProt Q86WV6, H232R)
Construct: His-TEV-hSTING (WT); TEV protease cleavage site (N); made in house; host or cells: E. coli BL21 DE3
Sequence (Q86WV6 with tags, fused parts or gaps H232R): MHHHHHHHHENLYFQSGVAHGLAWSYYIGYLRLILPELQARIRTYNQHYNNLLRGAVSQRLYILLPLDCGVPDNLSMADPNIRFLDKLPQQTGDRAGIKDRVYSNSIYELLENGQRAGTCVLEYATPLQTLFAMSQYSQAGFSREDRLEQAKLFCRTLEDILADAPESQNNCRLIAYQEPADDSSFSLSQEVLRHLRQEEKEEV
Assay: Increase of stability of STING protein against thermal denaturation, Differential Scanning Fluorimetry (DSF)
experimental.endpoint: DSF (K)

Param item = Cc1c(C(C)C)c(-c2cccc3nn(C[C@H](O)c4ccccc4)cc23)nn1-c1cc2cn(C)nc2nc1C1(F)CC1 ; retrieve measured DSF.
26

Query CCn1cc2cc(-n3nc(-c4cccc5nn(C[C@H](O)c6ccccc6)cc45)c(C(C)C)c3C)c(C)nc2n1 next
28

Please answer likewise for Cn1cc2cc(-c3nc(-c4cccc5nn(C[C@H](O)c6ccc(OCc7ccccc7)cc6)cc45)c(C4CC4)n3C)c(C3CC3)nc2n1
27

Field entry: COCCn1cc2cc(-n3nc(-c4cccc5nn(C[C@H](O)c6ccccc6)cc45)c(C(C)C)c3C)c(C)nc2n1
28

Next record, please: Cc1nc2nn(CCCCN3CCN(C)CC3)cc2cc1-n1nc(-c2cccc3nn(C[C@H](O)c4ccccc4)cc23)c(C(C)C)c1C
27

// next record COCCO[C@@H](Cn1cc2c(-c3nn(-c4cc5cn(C)nc5nc4C)c(C)c3C(C)C)cccc2n1)c1ccccc1
23

Next molecule up: COCc1nc2nn(C)cc2cc1-n1nc(-c2cccc3nn(C[C@H](O)c4ccccc4)cc23)c(C(C)C)c1C
27

----------
Molecular target: human STING WT (R232) (Homo sapiens, UniProt Q86WV6, H232R)
Sequence (Q86WV6 138-379 H232R): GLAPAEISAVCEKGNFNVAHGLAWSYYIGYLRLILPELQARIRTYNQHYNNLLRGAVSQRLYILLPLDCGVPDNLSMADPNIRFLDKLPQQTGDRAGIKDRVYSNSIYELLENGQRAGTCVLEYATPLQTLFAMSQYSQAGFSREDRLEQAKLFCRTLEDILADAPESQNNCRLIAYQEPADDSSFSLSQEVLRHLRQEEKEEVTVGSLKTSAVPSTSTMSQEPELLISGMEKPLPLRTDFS
Assay: Human STING HTRF binding assay (competitive, Cisbio 64BDSTGPEG)
experimental.endpoint: IC50 (nM)

In the examples that follow, each entry is paired with its recorded IC50.
Which IC50 value belongs to Cc1nc2nn(C)cc2cc1-n1nc(-c2cccc3nn(C[C@H](OCCCCO)c4ccccc4)cc23)c(C(C)C)c1C ?
8

Same question, Cc1c(-n2nc(-c3cccc4nn(C[C@H](O)c5ccccc5)cc34)c(C(C)C)c2C)ccn2c(C)cnc12 this time
17.1

# iterate: CSc1nc2nn(C)cc2cc1-n1nc(-c2cccc3nn(C[C@H](O)c4ccccc4)cc23)c(C(C)C)c1C
17.4

Another: Cc1nc2nn(C(C)C)cc2cc1-n1nc(-c2cccc3nn(C[C@H](O)c4ccccc4)cc23)c(C(C)C)c1C
14.6

I. Cc1c(C(C)C)c(-c2cccc3nn(C[C@H](O)c4ccccc4)cc23)nn1-c1ccn2c(C(F)F)nnc2c1C1CC1
II. Cc1nc2nn(C)cc2cc1-n1nc(-c2cccc3nn(CC(O)c4ccc(Br)cc4)cc23)c(C(C)C)c1C (stereo not shown)
III. Cc1c(C(C)C)c(-c2cccc3nn(C[C@H](O)c4ccc(OCCN(C)C)cc4)cc23)nn1-c1cc2cn(C)nc2nc1C1CC1
Rank entries according to their IC50, from the largest number down. As an answer, provide the labels arranged in the order called for.
II, I, III

----------
Target: human STING WT (R232) (Homo sapiens, UniProt Q86WV6, H232R)
Assay: Human STING HTRF binding assay (competitive, Cisbio 64BDSTGPEG)
pIC50: −log10 of the molar value.
experimental.endpoint: pIC50

P. Cc1nc2nn(CCCN3CCCC3=O)cc2cc1-n1nc(-c2cccc3nn(C[C@H](O)c4ccccc4)cc23)c(C(C)C)c1C
Q. Cc1c(C(C)C)c(-c2cccc3nn(C[C@H](O)c4ccccc4)cc23)nn1-c1cc2cn(C)nc2nc1C1CCOCC1
Consider entries P and Q . Which has the numerically lower pIC50? Kindly give the label for the entry you pick.
Q
(Q: 7.94, P: 8.31)

----------
Biological target: cGAMP binding domain of wild-type (GRR) human STING, residues 155-341 (Homo sapiens, UniProt Q86WV6, H232R)
Construct: His-TEV-hSTING (WT); TEV protease cleavage site (N); made in house; host or cells: E. coli BL21 DE3
Assay: Increase of stability of STING protein against thermal denaturation, Differential Scanning Fluorimetry (DSF)
experimental.endpoint: DSF (K)

Item under review: CC(C)c1c(-c2cccc3nn(C[C@H](O)c4ccccc4)cc23)nc(-c2cc3cn(C)nc3cc2OC(F)(F)F)n1C . Reported DSF?
27

Note, next up: Cc1nc2nn(C)cc2cc1-n1nc(-c2cccc3nn(C[C@H](O)c4ccccc4)cc23)c(C(C)CO)c1C (stereo partly shown)
24

Lookup Cn1c(-c2cc3cn(CCN4CCOCC4)nc3nc2C2CC2)nc(-c2cccc3nn(C[C@H](O)c4ccccc4)cc23)c1C1CC1
30

Then this compound: CCc1nc2nn(C)cc2cc1-c1nc(-c2cccc3nn(C[C@H](F)c4ccc(Cl)cc4)cc23)c(C2CC2)n1C
30

Now the same for Cc1c(C2CC2)c(-c2c(F)ccc3nn(C[C@H](O)c4ccccc4)cc23)nn1-c1cc2cn(C)nc2nc1C1CC1
29

Continue with CCCn1cc2cc(-c3nc(-c4cccc5nn(CC(F)(F)c6ccccc6)cc45)c(C4CC4)n3C)c(C3CC3)nc2n1
31

Now the compound Cc1nc2nn(CC3CC3)cc2cc1-n1nc(-c2cccc3nn(C[C@H](O)c4ccccc4)cc23)c(C(C)C)c1C
25

----------
Target: human STING WT (R232) (Homo sapiens, UniProt Q86WV6, H232R)
Test: Human STING HTRF binding assay (competitive, Cisbio 64BDSTGPEG)
pIC50: −log10 of the molar value.
experimental.endpoint: pIC50

Previously resolved entries follow.
Which pIC50 is reported for this compound? CCc1nc2nn(C)cc2cc1-c1nc(-c2cccc3nn(C[C@H](F)c4ccc(Cl)cc4)cc23)c(C2CC2)n1C [Example 72]
7.75

Now consider Cc1c(C(C)C)c(-c2cccc3nn(C[C@H](O)c4ccccc4)cc23)nn1-c1cc2cn(C)nc2nc1CO [Example 106] .
8.49

Queued: CCc1c(-c2cccc3nn(C[C@H](O)c4ccccc4)cc23)nn(-c2cc3cn(C)nc3nc2C)c1CC [Example 93]
7.76

I. CCCn1cc2cc(-c3nc(-c4cccc5nn(CC(F)(F)c6ccccc6)cc45)c(C4CC4)n3C)c(C3CC3)nc2n1 [Example 48]
II. Cc1nc2nn(Cc3cnn(C)c3)cc2cc1-n1nc(-c2cccc3nn(C[C@H](O)c4ccccc4)cc23)c(C(C)C)c1C [Example 24]
For I and II , which recorded pIC50 is lower? // return label of chosen record
I

a. CCn1cc2cc(-n3nc(-c4cccc5nn(C[C@H](O)c6ccccc6)cc45)c(C(C)C)c3C)c(C)nc2n1 [Example 100]
b. Cc1ccc([C@@H](O)Cn2cc3c(-c4nc(-c5cc6cn(C)nc6nc5C(C)C)n(C)c4C4CC4)cccc3n2)cc1 [Example 25]
Select one. Lower pIC50: a or b The response must carry the label of the picked entry.
b
(b: 7.74, a: 8.16)

----------
Molecular target: cGAMP binding domain of wild-type (GRR) human STING, residues 155-341 (Homo sapiens, UniProt Q86WV6, H232R)
Construct: His-TEV-hSTING (WT); TEV protease cleavage site (N); made in house; host or cells: E. coli BL21 DE3
Assay: Increase of stability of STING protein against thermal denaturation, Differential Scanning Fluorimetry (DSF)
experimental.endpoint: DSF (K)

Field request: DSF | item: Cn1c(-c2cc3cn(CCCN4CCCC4=O)nc3nc2C2CC2)nc(-c2cccc3nn(C[C@H](O)c4ccccc4)cc23)c1C1CC1 [Example 28]
31

How about this compound: Cn1cc2cc(-c3nc(-c4cccc5nn(C[C@H](O)c6ccccc6)cc45)c(C4CC4)n3C)c(C3CC3(F)F)nc2n1 (stereo partly drawn) [Example 110]
29

Lookup Cc1c(C(C)C)c(-c2cccc3nn(C[C@H](O)c4ccccc4)cc23)nn1-c1cc2cn(C)nc2[n+]([O-])c1C1CC1 [Example 50]
26

Proceed to CCc1nc2nn(C)cc2cc1-c1nc(-c2cccc3nn(C[C@H](F)c4ccccc4)cc23)c(C2CC2)n1C [Example 107]
31

Let us now turn to Cn1c(-c2cc3cn(CCCN4CCOCC4)nc3nc2C2CC2)nc(-c2cccc3nn(C[C@H](O)c4ccccc4)cc23)c1C1CC1 [Example 11]
30

Another: Cc1nc2nn(Cc3ncnn3C)cc2cc1-n1nc(-c2cccc3nn(C[C@H](O)c4ccccc4)cc23)c(C(C)C)c1C [Example 62]
25

Also Cc1c(C(C)C)c(-c2cccc3nn(C[C@H](O)c4ccccc4)cc23)nn1-c1cc2cn(C)nc2nc1C1CCOCC1 [Example 73] , if possible.
28

Now consider Cc1c(C(C)C)c(-c2cccc3nn(C[C@H](O)c4ccccc4)cc23)nn1-c1cc2cn(C)nc2nc1CN(C)C [Example 112] .
23

Now this one: COc1ccc(Cn2cc3cc(-c4nc(-c5cccc6nn(C[C@H](O)c7ccccc7)cc56)c(C5CC5)n4C)c(C4CC4)nc3n2)cc1 [Example 9]
33

Now consider Cc1nc2nn(CCCN3CCN(C)CC3)cc2cc1-n1nc(-c2cccc3nn(C[C@H](O)c4ccccc4)cc23)c(C(C)C)c1C [Example 7] .
25

Next compound: [2H][C@](O)(Cn1cc2c(-c3nn(-c4cc5cn(C)nc5nc4C)c(C)c3C(C)C)cccc2n1)c1ccccc1 [Example 3]
28

Also Cc1c(C(C)C)c(-c2cccc3nn(C[C@H](O)c4ccccc4)cc23)nn1-c1ccn2c(C(F)F)nnc2c1C1CC1 [Example 76] , if possible.
26

Next up: Cc1cc([C@@H](O)Cn2cc3c(-c4nn(-c5cc6cn(C)nc6nc5C)c(C)c4C(C)C)cccc3n2)ccn1 [Example 82]
27

Then this compound: CCc1c(-c2cccc3nn(C[C@H](O)c4ccccc4)cc23)nn(-c2cc3cn(C)nc3nc2C)c1CC [Example 93]
26

What do we get for CO[C@@H](Cn1cc2c(-c3nn(-c4cc5cn(C)nc5nc4C)c(C)c3C(C)C)cccc2n1)c1ccccc1 [Example 52] ?
25

Entry Cn1cc2cc(-c3nc(-c4cccc5nn(C[C@H](O)c6ccc(OC7COC7)cc6)cc45)c(C4CC4)n3C)c(C3CC3)nc2n1 [Example 69] please
29

Next compound: CC(C)c1nc2nn(C)cc2cc1-c1nc(-c2cccc3nn(CS(=O)(=O)c4ccccc4)cc23)c(C2CC2)n1C [Example 96]
29

Queued: Cn1cc2cc(-c3nc(-c4cccc5nn(C[C@H](O)c6ccc(OCC#N)cc6)cc45)c(C4CC4)n3C)c(C3CC3)nc2n1 [Example 90]
29

Note, next up: Cc1nc2nn(C)cc2cc1-n1nc(-c2cccc3nn(C[C@H](O)c4ccc(F)c(F)c4)cc23)c(C(C)C)c1C [Example 44]
26

One more compound: Cc1c(C(C)C)c(-c2cccc3nn(C[C@H](O)c4ccccc4)cc23)nn1-c1cc2cn(C)nc2nc1CO [Example 106]
28

Now consider Cc1nc2nn(CCCO)cc2cc1-n1nc(-c2cccc3nn(C[C@H](O)c4ccccc4)cc23)c(C(C)C)c1C [Example 32] and answer again.
28

Would you kindly repeat that for CCCc1nc2nn(C)cc2cc1-n1nc(-c2cccc3nn(C[C@H](O)c4ccccc4)cc23)c(C(C)C)c1C [Example 60] ?
28

Now this one: Cc1nc2nn(C3CCOC3)cc2cc1-n1nc(-c2cccc3nn(C[C@H](O)c4ccccc4)cc23)c(C(C)C)c1C (stereo partly drawn) [Example 14]
28

Please do the same for Cc1c(C(C)C)c(-c2cccc3nn(C[C@H](O)c4ccc(OCCN5CCOCC5)cc4)cc23)nn1-c1cc2cn(C)nc2nc1C1CC1 [Example 15] as well.
30

Next entry: Cc1nc2nn(CCCN3CCOCC3)cc2cc1-n1nc(-c2cccc3nn(C[C@H](F)c4ccccc4)cc23)c(C(C)C)c1C [Example 49]
26

And what about the compound COCCc1nc2nn(C)cc2cc1-n1nc(-c2cccc3nn(C[C@H](O)c4ccccc4)cc23)c(C(C)C)c1C [Example 38] ?
26

Ok, now Cc1nc2nn(C)cc2cc1-n1nc(-c2cccc3nn(C[C@H](O)c4ccc(F)cc4)cc23)c(C(C)C)c1C [Example 46]
27
